src = patent US20260116991A1

molecular target: monkey GPC3-His protein (monkey); test: ELISA, monkey GPC3-His coated; antibody 0.0008 nM
Label true (1) when OD450 nm is strictly below 0.09; at or above that, label false (0).

{"columns": ["binder", "assigned category"],
 "data": [
  ["hAb007LH3L1 (antibody, human IgG1, V domains shown) VH: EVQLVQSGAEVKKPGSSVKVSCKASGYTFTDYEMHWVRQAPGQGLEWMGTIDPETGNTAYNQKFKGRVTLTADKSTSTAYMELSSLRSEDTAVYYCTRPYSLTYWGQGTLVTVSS VL: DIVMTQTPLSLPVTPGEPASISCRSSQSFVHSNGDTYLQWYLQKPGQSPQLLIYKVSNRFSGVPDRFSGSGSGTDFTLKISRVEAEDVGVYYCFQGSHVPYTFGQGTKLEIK", "true (1)"],
  ["hAb003LH3L1b (antibody, human IgG1, V domains shown) VH: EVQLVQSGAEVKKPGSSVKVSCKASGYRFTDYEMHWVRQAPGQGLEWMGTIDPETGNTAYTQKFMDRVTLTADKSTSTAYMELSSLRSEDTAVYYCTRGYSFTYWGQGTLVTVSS VL: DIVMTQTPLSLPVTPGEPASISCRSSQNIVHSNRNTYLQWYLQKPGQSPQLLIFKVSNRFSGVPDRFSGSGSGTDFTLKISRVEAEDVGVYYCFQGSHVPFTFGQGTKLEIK", "false (0)"],
  ["hAb005LH3L1a (antibody, human IgG1, V domains shown) VH: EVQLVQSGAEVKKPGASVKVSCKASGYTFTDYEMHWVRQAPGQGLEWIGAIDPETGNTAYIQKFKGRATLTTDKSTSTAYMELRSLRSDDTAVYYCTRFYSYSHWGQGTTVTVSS VL: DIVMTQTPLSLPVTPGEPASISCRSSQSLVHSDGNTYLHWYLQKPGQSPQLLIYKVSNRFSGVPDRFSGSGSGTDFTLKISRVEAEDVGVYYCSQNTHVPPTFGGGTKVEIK", "true (1)"]
]}

*Q* Please indicate whether the reported OD450 nm of hAb006LH3L1 (antibody, human IgG1, V domains shown) VH: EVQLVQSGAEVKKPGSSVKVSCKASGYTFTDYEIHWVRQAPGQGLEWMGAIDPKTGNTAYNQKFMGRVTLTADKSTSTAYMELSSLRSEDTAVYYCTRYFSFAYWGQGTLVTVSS VL: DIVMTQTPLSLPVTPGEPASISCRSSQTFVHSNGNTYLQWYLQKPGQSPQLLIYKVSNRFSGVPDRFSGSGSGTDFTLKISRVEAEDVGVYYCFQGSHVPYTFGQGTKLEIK is strictly below 0.09.
*A* false (0)
